Hello, the source for this data is ChEMBL document CHEMBL1201862, in case you need it.

Test system: SK-MEL-28
Assay: NCI tumour cell line growth inhibition, 48 h
Activity calls are given as the source filed them. Rule as the data show it: active = GI50 up to about 1.1 µM and inactive = higher.
Some compounds, each annotated with its measured GI50.

Below are worked cases with known answers.
compound="CC(=O)n1cc(CC(C)O)c(=O)[nH]c1=O (stereo unspecified)" data_value="> 100 µM (inactive)"
compound=Nc1nc(Cl)c2ncn(Cc3ccc(CCl)cc3)c2n1 data_value="18 µM (inactive)"
compound="Cc1ccc2c(c1C)CC1(Cc3c(ccc4c3CCC4)C1=O)C2=O (stereo unspecified)" data_value="> 100 µM (inactive)"

Data point: O=C1C=CC(=O)c2c(O)c(N(CCCl)CCCl)c(Cl)c(O)c21 ; GI50 = > 5.6 µM (inactive)

Data point: C[P+](C)(C)c1ccccc1 ; GI50 = > 100 µM (inactive)

Data point: Cc1cc(O)nc(NNC(C#N)c2cccc(O)c2)n1 (stereo unspecified) ; GI50 = > 100 µM (inactive)
